Assign growth to each entry below.
- Tested on: SN12C renal
- assay: NCI-60 one-dose screen, 48 h (100 = growth as untreated, 0 = no growth, -100 = all killed)
- measurementParameters: 10 µM unless noted
This is part of a sample that, as a whole, favours compounds with a hit. Of some 83,000 tested, about 20% had one in any assay.
Lab book: enter the figure in %, no units written.

Q: Provide measured growth value, entry: `COC(=O)[C@]12CC[C@@H](C)[C@H](C)[C@@H]1C1=CC[C@@H]3[C@@]4(C)C[C@@H](OC(C)=O)[C@H](OC(C)=O)[C@@](C)(COC(C)=O)[C@@H]4[C@H](O)C[C@@]3(C)[C@]1(C)CC2`
A: 11

Q: Identify the reported growth for the following entry. `COc1ccc2c(c1)c(-c1nc(-c3c[nH]c4ncccc34)cs1)cn2CCNC(=O)OC(C)(C)C`
A: 84.8

Q: Provide only the value of recorded growth for `COc1cc(/C=N/Nc2ncnc3c2c(C)nn3-c2ccc(F)cc2)ccc1O`
A: 85.1

Q: Answer with reported growth of `CC1(C)[C@@H](O)CC[C@]2(C)[C@H]3CC[C@@H]4[C@H]5[C@H](C(=O)/C=C/c6ccc(C(F)(F)F)cc6)CC[C@]5(CO)CC[C@@]4(C)[C@]3(C)CC[C@@H]12`
A: 58.8

Q: Specify measured growth for `COC(=O)CNc1nc(N(C)O)nc(N(C)O)n1` .
A: 49.8

Q: Please indicate growth recorded for `COc1ccc(OC)c(-c2c(C#N)c(-c3ccco3)nc3c2c(-c2ccccc2)nn3-c2ccccc2)c1`
A: 94.6

Q: Give a short answer stating reported growth for `CC(C)=CCC[C@](C)(O)[C@H]1CC[C@]2(C)[C@@H]1CC[C@@H]1[C@@]3(C)C/C(=C/c4ccc(Br)cc4)C(=O)C(C)(C)[C@@H]3CC[C@]12C` .
A: 88

* * *

- System: M14 melanoma
- assay: NCI-60 one-dose screen, 48 h
- measurementParameters: 10 µM unless noted
The panel holds about 83,000 compounds, 20% with a hit somewhere; the sample as a whole holds those more often. Activity calls are given as the source filed them. The calls were made as follows: active = growth percent below 10; inactive = the rest.
Log the outcome using a class from active, inactive

Q: Which outcome did this test record for the molecule `C#CCN=C[C@]12CC[C@@H](C(=C)C)[C@@H]1[C@H]1CC[C@@H]3[C@@]4(C)CCC(=O)C(C)(C)[C@@H]4CC[C@@]3(C)[C@]1(C)CC2` ?
A: inactive

Q: Test call, this molecule: `Cc1csc(Nc2nc(-c3cccc(Br)c3)nc(C(Cl)(Cl)Cl)n2)n1`
A: inactive

Q: Test call for this molecule, please: `Fc1ccc2[nH]cc(-c3nc(-c4c[nH]c5ncccc45)cs3)c2c1`
A: inactive

Q: Hi, do you know how `Cn1cc(-c2csc(-c3cn(C(=O)OC(C)(C)C)c4ccc(Br)cc34)n2)c2cccnc21` came out in this test?
A: inactive

Q: Answer briefly: the call reported for C/C(=N\NC(=O)C(C)SC(C)C(=O)N/N=C(\C)c1cccnc1)c1cccnc1 (stereo not drawn) in this assay.
A: inactive

Q: Hi, do you know how O=C1c2ccccc2NC(c2cn(-c3ccccc3)nc2-c2cccs2)N1Cc1ccccc1 (stereo not drawn) came out in this test?
A: inactive

Q: Tell me the recorded outcome of this test for `CC1(C)CC[C@]2(C(=O)NCCNCCN)CC[C@]3(C)C(=CC[C@@H]4[C@@]5(C)CCC(=O)C(C)(C)[C@@H]5CC[C@]43C)[C@@H]2C1` .
A: active

Q: Hi, sorry to bother you, what did the test record for `COc1ccc(/C=C2\N=C(c3ccccc3)N(c3cc(OC)c(OC)cc3C(=O)N3N=C(C)CC3=O)C2=O)cc1` ?
A: inactive
